What follows is a collection of MIC values obtained with Staphylococcus aureus NCTC 10788.

Lookup: What MIC appears in the records for this molecule with Staphylococcus aureus NCTC 10788? CC(C)C[C@H](NC(=O)[C@H](CCCN=C(N)N)NC(=O)[C@H](CC(N)=O)NC(=O)[C@H](CC(C)C)NC(=O)[C@@H](N)CCCCN)C(=O)N[C@@H](CCCCN)C(=O)N[C@@H](CCC(=O)O)C(=O)N[C@@H](CCCCN)C(=O)N[C@@H](CC(N)=O)C(=O)N[C@@H](CCCCN)C(=O)N[C@@H](C)C(=O)N[C@@H](CCCCN)C(=O)N[C@@H](CC(N)=O)C(=O)N[C@@H](CO)C(=O)N[C@@H](CCCCN)C(=O)N[C@@H](CCC(=O)O)C(=O)N[C@@H](CC(N)=O)C(=O)N[C@@H](CC(N)=O)C(=O)O [KLNRLKEKNKAKNSKENN]
Found: ≥ 237 µM

Lookup: And then CC[C@H](C)[C@H](NC(=O)[C@H](C)NC(=O)[C@H](C)NC(=O)[C@@H]1CCCN1C(=O)[C@@H](NC(=O)[C@H](CC(C)C)NC(=O)[C@H](CO)NC(=O)[C@H](CC(C)C)NC(=O)[C@@H](N)Cc1ccccc1)[C@@H](C)CC)C(=O)N[C@@H](CO)C(=O)N[C@@H](C)C(=O)N[C@H](C(=O)N[C@@H](CO)C(=O)N[C@@H](C)C(=O)N[C@@H](CC(C)C)C(=O)N[C@@H](C)C(=O)N[C@@H](CC(N)=O)C(=O)N[C@@H](Cc1cnc[nH]1)C(N)=O)C(C)C [FLSLIPAAISAVSALANH] , what is it?
Found: ≥ 33 µM

Lookup: Entry CC[C@H](C)[C@H](NC(=O)[C@H](CC(C)C)NC(=O)[C@H](CCCCN)NC(=O)[C@H](CCCCN)NC(=O)[C@@H](NC(=O)[C@H](CC(C)C)NC(=O)[C@H](CCCCN)NC(=O)[C@@H]1CCCN1C(=O)[C@@H](NC(=O)[C@H](CCSC)NC(=O)CNC(=O)[C@H](CC(C)C)NC(=O)[C@@H](N)Cc1ccccc1)[C@@H](C)CC)[C@@H](C)CC)C(=O)N[C@@H](CCCCN)C(=O)N[C@@H](C)C(=O)N[C@@H](Cc1ccccc1)C(=O)N[C@@H](CCCCN)C(=O)O [FLGMIPKLIKKLIKAFK] please
Found: 5 µM

Here are 6 molecules. What values of MIC were reported for them?
1. CC[C@H](C)[C@H](NC(=O)[C@H](Cc1cnc[nH]1)NC(=O)[C@@H]1CCCN1C(=O)[C@@H](NC(=O)[C@H](CC(C)C)NC(=O)[C@H](CO)NC(=O)[C@H](CC(C)C)NC(=O)[C@@H](N)Cc1ccccc1)[C@@H](C)CC)C(=O)N[C@H](C(=O)N[C@@H](CO)C(=O)NCC(=O)N[C@H](C(=O)N[C@@H](C)C(=O)N[C@@H](C)C(=O)N[C@@H](CC(C)C)C(=O)N[C@@H](C)C(=O)N[C@@H](CC(N)=O)C(=O)N[C@@H](Cc1cnc[nH]1)C(=O)N[C@@H](CC(C)C)C(N)=O)C(C)C)C(C)C [FLSLIPHIVSGVAALANHL]
2. CC[C@H](C)[C@H](NC(=O)[C@H](C)NC(=O)[C@H](CCCCN)NC(=O)[C@@H]1CCCN1C(=O)[C@@H](NC(=O)[C@H](CC(C)C)NC(=O)[C@H](CO)NC(=O)[C@H](CC(C)C)NC(=O)[C@@H](N)Cc1ccccc1)[C@@H](C)CC)C(=O)N[C@@H](CO)C(=O)N[C@@H](C)C(=O)N[C@H](C(=O)N[C@@H](CO)C(=O)N[C@@H](C)C(=O)N[C@@H](CC(C)C)C(=O)N[C@@H](C)C(=O)N[C@@H](CC(N)=O)C(=O)N[C@@H](Cc1cnc[nH]1)C(=O)N[C@@H](Cc1ccccc1)C(N)=O)C(C)C [FLSLIPKAISAVSALANHF]
3. CC[C@H](C)[C@H](NC(=O)[C@@H](NC(=O)[C@@H]1CCCN1C(=O)[C@H](CC(C)C)NC(=O)[C@@H](N)Cc1ccccc1)C(C)C)C(=O)N[C@@H](C)C(=O)NCC(=O)N[C@@H](CC(C)C)C(=O)N[C@@H](CC(C)C)C(=O)N[C@@H](CO)C(=O)N[C@@H](CCCCN)C(=O)N[C@@H](CC(C)C)C(=O)N[C@@H](Cc1ccccc1)C(N)=O [FLPVIAGLLSKLF]
4. CC[C@H](C)[C@@H]1NC(=O)[C@H](CO)NC(=O)[C@H](CCCCN)NC(=O)[C@H]([C@@H](C)O)NC(=O)[C@H](Cc2c[nH]c3ccccc23)NC(=O)[C@@H](NC(=O)CNC(=O)[C@H](CCCN=C(N)N)NC(=O)[C@H](CC(C)C)NC(=O)[C@H](C)N)CSSC[C@@H](C(=O)N2CCC[C@H]2C(N)=O)NC(=O)[C@@H]2CCCN2C(=O)[C@H](CCCCN)NC(=O)[C@@H]2CCCN2C(=O)[C@@H]2CCCN2C1=O [ALRGCWTKSIPPKPCP]
5. CC(C)C[C@H](NC(=O)[C@H](CC(C)C)NC(=O)[C@H](CO)NC(=O)CNC(=O)[C@H](CC(C)C)NC(=O)[C@H](CC(C)C)NC(=O)CNC(=O)[C@H](CC(C)C)NC(=O)[C@@H](N)Cc1ccccc1)C(N)=O [FLGLLGSLL]
6. CC[C@H](C)[C@H](NC(=O)[C@H](C)NC(=O)[C@@H]1CCCN1C(=O)[C@H](CCCN=C(N)N)NC(=O)[C@@H](N)CC(C)C)C(=O)N[C@@H](CC(C)C)C(=O)N[C@H](C(=O)N[C@@H](CCCN=C(N)N)C(=O)N[C@H](C(=O)N[C@@H](CCCCN)C(N)=O)[C@@H](C)O)C(C)C [LRPAILVRTK]

Found:
≥ 200 µM
8 µM
8 µM
≥ 128 µM
≥ 34 µM
≥ 439 µM
